Target: T1, UBR box (residues 113-194) in the UBR1 E3 ubiquitin ligase of S. cerevisiae (S. cerevisiae, UniProt P19812 113-194)
T1 construct: range 113-194; Expressed and purified as in Nat; Struct; Mol. Biol. 2010, 17, 1175-1181
T1 sequence (looked up): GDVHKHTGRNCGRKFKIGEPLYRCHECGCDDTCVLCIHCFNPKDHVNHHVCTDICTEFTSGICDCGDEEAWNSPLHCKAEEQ
Experiment: competitive fluorescence polarization on the UBR box (as the sentence implies; the origin of the value is not stated)
experimental endpoint: Ki (µM)

- RLAA (also called RLAA peptide; N-degron tetrapeptide) [RLAA tetrapeptide]: 4.2

Entry source: patent US20230405134A1
